- ASSAYED TARGET: Histone deacetylase 1 (Homo sapiens, UniProt Q13547)
- Sequence (Q13547 whole entry): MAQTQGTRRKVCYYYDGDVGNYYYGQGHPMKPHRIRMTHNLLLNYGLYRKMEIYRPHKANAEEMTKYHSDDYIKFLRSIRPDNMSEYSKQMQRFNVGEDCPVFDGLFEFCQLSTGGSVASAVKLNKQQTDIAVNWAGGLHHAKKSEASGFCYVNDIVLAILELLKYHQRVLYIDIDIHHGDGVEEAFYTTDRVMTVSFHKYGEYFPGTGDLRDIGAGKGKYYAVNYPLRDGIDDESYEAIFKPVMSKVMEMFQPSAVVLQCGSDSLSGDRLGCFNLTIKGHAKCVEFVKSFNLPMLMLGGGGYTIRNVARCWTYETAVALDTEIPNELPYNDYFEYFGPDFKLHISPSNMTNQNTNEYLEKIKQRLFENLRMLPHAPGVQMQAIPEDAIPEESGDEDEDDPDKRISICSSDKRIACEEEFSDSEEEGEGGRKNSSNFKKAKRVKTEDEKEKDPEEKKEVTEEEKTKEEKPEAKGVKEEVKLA
- TEST DESCRIPTION: Inhibition of full length recombinant human C-terminal FLAG/His-tagged HDAC1 expressed in baculovirus expression system using Boc-Lys(acetyl)-AMC as substrate preincubated for 60 mins followed by substrate addition measured after 2 hrs by fluorescence assay
PROPERTY MEASURED: IC50
In your response, the unit should come after the numeric value.

SMILES DATA: CCCNNC(=O)c1ccc(CNC(=O)[C@H](Cc2c[nH]c3ccccc23)NC(=O)c2ccc(OC)cc2)cc1
EXPERIMENTAL RESULT: 50.1 nM

Now, please, on to the next molecule.
Note down IC50 recorded for "COc1ccc(C(=O)N[C@@H](Cc2c[nH]c3ccccc23)C(=O)NCc2ccc(C(=O)Nc3ccccc3N)cc2)cc1"
49.8 nM

Values compiled from ChEMBL document CHEMBL4020839.
